Biological target: T1, human CD3 on human T cells (Jurkat) (human, UniProt P07766 23-207; P04234 22-171; P09693 23-182)
T1 construct: whole, on cells; also called huCD3+; cell surface CD3 on human (Jurkat) T cells
T1 sequence (P07766 23-207, chain 1 of 3): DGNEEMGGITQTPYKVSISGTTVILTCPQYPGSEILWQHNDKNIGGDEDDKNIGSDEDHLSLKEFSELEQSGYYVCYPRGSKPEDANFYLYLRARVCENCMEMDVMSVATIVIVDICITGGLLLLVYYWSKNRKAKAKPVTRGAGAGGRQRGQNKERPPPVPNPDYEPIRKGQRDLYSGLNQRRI
T1 sequence (P04234 22-171, chain 2 of 3): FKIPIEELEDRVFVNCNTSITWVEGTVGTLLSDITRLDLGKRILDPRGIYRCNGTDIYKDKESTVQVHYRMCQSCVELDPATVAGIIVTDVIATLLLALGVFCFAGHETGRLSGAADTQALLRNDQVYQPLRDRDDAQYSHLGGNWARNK
T1 sequence (P09693 23-182, chain 3 of 3): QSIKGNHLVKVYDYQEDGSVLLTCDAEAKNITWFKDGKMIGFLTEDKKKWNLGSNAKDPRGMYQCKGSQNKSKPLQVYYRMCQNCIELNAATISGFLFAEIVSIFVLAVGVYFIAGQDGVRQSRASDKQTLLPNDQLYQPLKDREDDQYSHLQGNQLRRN
Assay: flow cytometry, Jurkat cells, 1000 nM antibody
Procedure: To express humanized Fabs in mammalian cells, VH genes (VH1 and VH2) and VL genes (VL1~VL10) shown in FIG. 2 were individually cloned into the pFUSE vector under the IL2 signal peptide sequence. […] Binding affinity of humanized candidates for human and cynomolgus T cells were evaluated by flow cytometry. […] After several washes, samples were acquired on a BD LSR II or BD Accuri C6 and analyzed using FlowJo 7.6.2 software.
attributeMeasured: MFI

HuL7H2 (Fab, V domains shown, Humanized Fab expressed in Expi293F; also called VL7 + VH2 humanized Fab) VH: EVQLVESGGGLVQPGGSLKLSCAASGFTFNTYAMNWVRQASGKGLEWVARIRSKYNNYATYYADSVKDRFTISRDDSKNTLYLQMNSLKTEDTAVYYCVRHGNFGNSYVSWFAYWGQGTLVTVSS VL: QAVVTQEPSLTVSPGGTVTLTCRSSTGAVTTSNYANWVQQKPGQAFRGLIGGTNKRAPGTPARFSGSLLGDKAALTISGAQPEDEAEYYCALWYSNLWVFGGGTKLTVL :: 35400
HuL10H2 (Fab, V domains shown, Humanized Fab expressed in Expi293F; also called VL10 + VH2 humanized Fab) VH: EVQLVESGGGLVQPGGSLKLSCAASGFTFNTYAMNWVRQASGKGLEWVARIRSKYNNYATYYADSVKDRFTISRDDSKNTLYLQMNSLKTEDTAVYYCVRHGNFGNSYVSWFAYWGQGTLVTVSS VL: QAVVTQEPSLTTSPGGTVTLTCRSSTGAVTTSNYANWVQQKPDHLFTGLIGGTNKRAPGVPARFSGSLIGDKAALTISGAQPEDEAEYYCALWYSNLWVFGGGTKLTVL :: 46300
HuL3H2 (Fab, V domains shown, Humanized Fab expressed in Expi293F; also called VL3 + VH2 humanized Fab) VH: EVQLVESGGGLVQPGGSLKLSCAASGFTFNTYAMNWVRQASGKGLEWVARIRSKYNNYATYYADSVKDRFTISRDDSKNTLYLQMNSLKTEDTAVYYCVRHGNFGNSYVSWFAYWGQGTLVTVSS VL: QAVVTQEPSLTVSPGGTVTLTCGSSTGAVTTSNYANWVQQKPGQAFRGLIGGTNKRAPWTPARFSGSLLGGKAALTISGAQPEDEAEYYCALWYSNLWVFGGGTKLTVL :: 666
huL5H2 (heavy chain SEQ ID NO: 41 and light chain SEQ ID NO: 39) (Fab, V domains shown, also called VL5 kappa + H2 Fab) VH: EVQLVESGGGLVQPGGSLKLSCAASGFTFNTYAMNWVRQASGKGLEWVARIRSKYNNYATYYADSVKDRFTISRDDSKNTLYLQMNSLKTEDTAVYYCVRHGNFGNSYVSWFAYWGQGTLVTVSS VL: QAVVTQEPSLTVSPGGTVTLTCRSSTGAVTTSNYANWVQQKPDHLFRGLIGGTNKRAPGTPARFSGSLLGDKAALTISGAQPEDEAEYYCALWYSNLWVFGGGTKLTVLK :: 51800
HuL8H2 (Fab, V domains shown, Humanized Fab expressed in Expi293F; also called VL8 + VH2 humanized Fab) VH: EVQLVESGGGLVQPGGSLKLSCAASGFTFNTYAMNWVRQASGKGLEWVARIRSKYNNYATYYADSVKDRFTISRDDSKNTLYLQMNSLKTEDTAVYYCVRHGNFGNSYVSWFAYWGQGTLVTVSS VL: QAVVTQEPSLTVSPGGTVTLTCGSSTGAVTTSNYANWVQQKPDHLFRGLIGGTNKRAPGTPARFSGSLLGGKAALTISGAQPEDEAEYYCALWYSNLWVFGGGTKLTVL :: 54600
HuL6H2 (Fab, V domains shown, Humanized Fab expressed in Expi293F; also called VL6 + VH2 humanized Fab) VH: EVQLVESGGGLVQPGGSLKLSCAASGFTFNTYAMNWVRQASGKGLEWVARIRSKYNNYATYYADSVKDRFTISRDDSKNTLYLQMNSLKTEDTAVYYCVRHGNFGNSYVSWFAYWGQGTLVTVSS VL: QAVVTQEPSLTVSPGGTVTLTCRSSTGAVTTSNYANWFQQKPDHLPRTLIYGTNKRAPGTPARFSGSLLGDKAALTISGAQPEDEAEYYCALWYSNLWVFGGGTKLTVL :: 2200
HuL1H1 (Fab, V domains shown, Detected with anti-human kappa; also called VL1 + VH1 humanized Fab) VH: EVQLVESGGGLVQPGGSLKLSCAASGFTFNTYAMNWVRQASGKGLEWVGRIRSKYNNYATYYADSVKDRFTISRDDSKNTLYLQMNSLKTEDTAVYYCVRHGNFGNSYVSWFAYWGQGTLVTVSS VL: QAVVTQEPSLTVSPGGTVTLTCGSSTGAVTTSNYANWFQQKPGQAPRTLIYGTNKRAPWTPARFSGSLLGGKAALTISGAQPEDEAEYYCALWYSNLWVFGGGTKLTVL :: 1470
HuL2H2 (Fab, V domains shown, Humanized Fab expressed in Expi293F; also called VL2 + VH2 humanized Fab) VH: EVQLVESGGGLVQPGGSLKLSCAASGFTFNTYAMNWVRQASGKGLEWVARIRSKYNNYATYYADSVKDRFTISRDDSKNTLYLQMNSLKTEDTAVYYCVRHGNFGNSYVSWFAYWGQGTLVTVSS VL: QAVVTQEPSLTVSPGGTVTLTCGSSTGAVTTSNYANWVQQKPGQAFRGLIYGTNKRAPWTPARFSGSLLGGKAALTISGAQPEDEAEYYCALWYSNLWVFGGGTKLTVL :: 1470
Murine anti-CD3 (antibody, V domains shown, also called murine anti-CD3 VL/VH) VH: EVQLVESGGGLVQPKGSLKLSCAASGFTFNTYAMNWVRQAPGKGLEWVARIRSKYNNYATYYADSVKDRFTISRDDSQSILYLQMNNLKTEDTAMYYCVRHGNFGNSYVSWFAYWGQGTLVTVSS VL: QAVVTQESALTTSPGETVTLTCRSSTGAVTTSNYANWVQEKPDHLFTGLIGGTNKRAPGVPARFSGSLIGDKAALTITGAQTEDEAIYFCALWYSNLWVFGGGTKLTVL :: 54400
HuL4H2 (Fab, V domains shown, Humanized Fab expressed in Expi293F; also called VL4 + VH2 humanized Fab) VH: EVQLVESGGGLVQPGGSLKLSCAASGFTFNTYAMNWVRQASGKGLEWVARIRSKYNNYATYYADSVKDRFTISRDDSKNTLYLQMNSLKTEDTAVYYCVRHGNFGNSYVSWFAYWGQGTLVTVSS VL: QAVVTQEPSLTVSPGGTVTLTCGSSTGAVTTSNYANWVQQKPGQAFRGLIYGTNKRAPWTPARFSGSLLGDKAALTISGAQPEDEAEYYCALWYSNLWVFGGGTKLTVL :: 650
HuL9H2 (Fab, V domains shown, Humanized Fab expressed in Expi293F; also called VL9 + VH2 humanized Fab) VH: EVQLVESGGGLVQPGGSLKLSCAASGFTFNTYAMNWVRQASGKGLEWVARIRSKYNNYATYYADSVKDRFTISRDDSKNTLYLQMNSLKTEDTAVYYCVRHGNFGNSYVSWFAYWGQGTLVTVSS VL: QAVVTQEPSLTVSPGGTVTLTCGSSTGAVTTSNYANWVQQKPGQAFRGLIGGTNKRAPGVPDRFSGSLLGGKAALTISGAQPEDEAEYYCALWYSNLWVFGGGTKLTVL :: 39400

Origin of the recorded values: patent US12252534
